Entries annotated with measured switch fluorescence ratio
Tested on: ATP;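 note: ATP exposure 15 min at 22 °C before imaging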
Assay: switch fluorescence ratio, 500 uM ATP over buffer (Cy3 cluster intensity, sum of 5 cycles each) (fold (ratio)); higher = stronger signal-on switching upon ATP binding; sequences stand for … in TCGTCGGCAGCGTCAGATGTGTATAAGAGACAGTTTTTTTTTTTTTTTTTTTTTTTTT…TC
Conditions: aptamer strand: ATP DNA aptamer (quencher-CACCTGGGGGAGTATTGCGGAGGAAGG + anchor), 100 nM annealed; ATP concentration: 500 uM
assay_metric: switch fluorescence ratio

AGTTAGTTAG | 0.987
CAGCCTTGTG | 1.01
CAGTGAGATG | 1.03
AAATGATCCG | 1.08
AGAAGGGAGG | 0.987
TTGACGGAGA | 0.993
TTTGCGGGAC | 1.57
CTGTTAGAGA | 1.01
ATTTGCTGCG | 0.947
GGTTGAGATG | 0.982
AAAAAAAGCA | 1.04
CTGAGGCGCC | 1.01
ATCTACCATG | 1.03
ATTCGGACGG | 1.03
CGTTGGGAAG | 0.978
TTATTAAAAT | 0.997
ACCCGAAGGG | 0.948
GTGGGAAGGT | 0.994
ATATAGGTTT | 1.01
AATTTTTGTA | 0.984
ATCCTTTGTG | 1.02
TGTGTTATAC | 1.05
GGGTTTTTCC | 1.1
GGAGACAGTT | 0.971
TGATTACTGG | 1.03
ATTGCTACTT | 1.03
TAGGGTGGGC | 0.954
TTGTTTTTAC | 1.07
TGCTTATTTG | 1
CGCGTTGTGG | 1.03
AAGTTGTTCT | 0.997

---

Entries annotated with measured switch fluorescence ratio
Test system: ATP;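 note: ATP exposure 15 min at 22 °C before imaging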
Assay: switch fluorescence ratio, 500 uM ATP over buffer (Cy3 cluster intensity, sum of 5 cycles each) (fold (ratio)); higher = stronger signal-on switching upon ATP binding; sequences stand for … in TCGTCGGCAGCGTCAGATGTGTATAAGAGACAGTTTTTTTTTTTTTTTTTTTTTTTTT…TC
Conditions: aptamer strand: ATP DNA aptamer (quencher-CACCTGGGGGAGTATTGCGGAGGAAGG + anchor), 100 nM annealed; ATP concentration: 500 uM
assay_metric: switch fluorescence ratio

TGTTATTGAA | 0.992
CCAATTATGT | 1.01
ATTATCCCGG | 0.99
TTTTGGACCC | 1.01
GTGTTCGGGG | 0.998
ATGCCAATAA | 1.01
AGAAACGGAA | 1.27
CAGGGGAAAG | 1.01
TAAAGGGTTT | 0.982
TTACGTTTGT | 1.02
TTTAATACGC | 1.38
GTCGTAGCTT | 1.06
ATTGTCTTTG | 0.982
AAAGAACGGA | 1.06

---

System: ATP;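 note: ATP exposure 15 min at 22 °C before imaging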
Assay: switch fluorescence ratio, 500 uM ATP over buffer (Cy3 cluster intensity, sum of 5 cycles each) (fold (ratio)); higher = stronger signal-on switching upon ATP binding; sequences stand for … in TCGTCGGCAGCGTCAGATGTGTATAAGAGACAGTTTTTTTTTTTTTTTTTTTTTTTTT…TC
Settings: aptamer strand: ATP DNA aptamer (quencher-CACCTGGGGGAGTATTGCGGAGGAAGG + anchor), 100 nM annealed; ATP concentration: 500 uM
Entries annotated with measured switch fluorescence ratio
assay_metric: switch fluorescence ratio

GTTTTAAACA | 1
TGGGAAAAAG | 0.972
GGCGGGATAT | 1.01
ATCGTGTATC | 1.06
GGGTATATGG | 1.01
TTATTTCAAG | 1.01
AATGTTTTGA | 0.995
AAGAAAAAGG | 0.993
TAGGGATAGC | 0.985
AGGCATCAAC | 1.02
AAGGGTAAGC | 0.981
CTGACTTTTT | 1.02
AAACTAGCGC | 0.981
TTGTTTTTGA | 1.05
ATGGATTGAT | 0.962
TTTTTCTGGA | 0.993
ATGACGCTTT | 1.02
CTGGCATGTA | 1.01
GGGAGGGGGA | 1.01
TTTGAAACCA | 1.01
ATAGGTCTTA | 0.983
GCGACTAGGC | 1.03
GAGTGAGTAT | 0.973
TCGGGGAATT | 0.989
AGGGAGTAGG | 1.12
TCGGGTGGTT | 1
CGGTTCGGGT | 0.993
AGGACGTCCA | 0.989
TATTGGGTAA | 1.11
